Data credit: paper PMC11403733

# test.system: SALL4 (Homo sapiens, UniProt Q96SW2+Q9UJQ4)
# Construct: endogenous in cells; host or cells: NCCIT (HiBiT knock-in)
# Sequence (Q9UJQ4 whole entry): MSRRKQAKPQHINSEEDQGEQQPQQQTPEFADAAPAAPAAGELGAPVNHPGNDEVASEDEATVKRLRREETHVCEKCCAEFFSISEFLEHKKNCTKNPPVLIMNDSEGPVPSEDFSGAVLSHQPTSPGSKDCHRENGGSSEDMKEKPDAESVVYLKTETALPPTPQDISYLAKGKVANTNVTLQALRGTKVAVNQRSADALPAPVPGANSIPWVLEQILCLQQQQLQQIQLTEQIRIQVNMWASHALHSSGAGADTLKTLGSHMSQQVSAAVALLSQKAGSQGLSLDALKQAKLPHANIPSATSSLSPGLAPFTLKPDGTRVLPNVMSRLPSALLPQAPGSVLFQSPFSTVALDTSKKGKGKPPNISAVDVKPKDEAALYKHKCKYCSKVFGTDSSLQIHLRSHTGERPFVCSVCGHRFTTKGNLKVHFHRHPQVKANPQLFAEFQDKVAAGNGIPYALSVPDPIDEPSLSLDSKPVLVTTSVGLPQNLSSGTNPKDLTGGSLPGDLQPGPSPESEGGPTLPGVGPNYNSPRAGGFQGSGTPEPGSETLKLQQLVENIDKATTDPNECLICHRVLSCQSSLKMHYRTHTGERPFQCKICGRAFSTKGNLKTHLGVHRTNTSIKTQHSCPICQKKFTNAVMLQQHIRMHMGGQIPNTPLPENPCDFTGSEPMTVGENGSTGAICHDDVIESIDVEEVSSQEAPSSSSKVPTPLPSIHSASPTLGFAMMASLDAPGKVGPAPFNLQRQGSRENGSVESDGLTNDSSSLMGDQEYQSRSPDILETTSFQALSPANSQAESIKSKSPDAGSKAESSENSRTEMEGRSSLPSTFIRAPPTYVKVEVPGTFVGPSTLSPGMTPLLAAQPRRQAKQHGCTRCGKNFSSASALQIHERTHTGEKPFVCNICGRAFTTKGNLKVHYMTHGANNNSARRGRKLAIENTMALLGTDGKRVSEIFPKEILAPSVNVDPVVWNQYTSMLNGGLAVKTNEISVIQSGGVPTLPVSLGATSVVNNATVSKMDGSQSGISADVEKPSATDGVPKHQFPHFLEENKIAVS
# Sequence (Q96SW2 whole entry): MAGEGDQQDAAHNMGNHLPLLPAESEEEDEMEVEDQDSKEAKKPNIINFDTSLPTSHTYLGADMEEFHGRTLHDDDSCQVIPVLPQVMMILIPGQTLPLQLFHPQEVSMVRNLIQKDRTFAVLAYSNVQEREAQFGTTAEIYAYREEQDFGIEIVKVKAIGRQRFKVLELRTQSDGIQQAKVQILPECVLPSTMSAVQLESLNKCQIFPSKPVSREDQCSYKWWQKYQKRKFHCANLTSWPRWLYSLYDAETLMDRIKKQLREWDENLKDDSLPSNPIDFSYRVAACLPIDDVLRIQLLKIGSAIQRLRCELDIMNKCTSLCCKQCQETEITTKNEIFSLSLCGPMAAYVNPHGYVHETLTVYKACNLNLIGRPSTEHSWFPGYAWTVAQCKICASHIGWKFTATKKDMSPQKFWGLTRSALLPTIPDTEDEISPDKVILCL
# Sequence (Q16531 whole entry partner): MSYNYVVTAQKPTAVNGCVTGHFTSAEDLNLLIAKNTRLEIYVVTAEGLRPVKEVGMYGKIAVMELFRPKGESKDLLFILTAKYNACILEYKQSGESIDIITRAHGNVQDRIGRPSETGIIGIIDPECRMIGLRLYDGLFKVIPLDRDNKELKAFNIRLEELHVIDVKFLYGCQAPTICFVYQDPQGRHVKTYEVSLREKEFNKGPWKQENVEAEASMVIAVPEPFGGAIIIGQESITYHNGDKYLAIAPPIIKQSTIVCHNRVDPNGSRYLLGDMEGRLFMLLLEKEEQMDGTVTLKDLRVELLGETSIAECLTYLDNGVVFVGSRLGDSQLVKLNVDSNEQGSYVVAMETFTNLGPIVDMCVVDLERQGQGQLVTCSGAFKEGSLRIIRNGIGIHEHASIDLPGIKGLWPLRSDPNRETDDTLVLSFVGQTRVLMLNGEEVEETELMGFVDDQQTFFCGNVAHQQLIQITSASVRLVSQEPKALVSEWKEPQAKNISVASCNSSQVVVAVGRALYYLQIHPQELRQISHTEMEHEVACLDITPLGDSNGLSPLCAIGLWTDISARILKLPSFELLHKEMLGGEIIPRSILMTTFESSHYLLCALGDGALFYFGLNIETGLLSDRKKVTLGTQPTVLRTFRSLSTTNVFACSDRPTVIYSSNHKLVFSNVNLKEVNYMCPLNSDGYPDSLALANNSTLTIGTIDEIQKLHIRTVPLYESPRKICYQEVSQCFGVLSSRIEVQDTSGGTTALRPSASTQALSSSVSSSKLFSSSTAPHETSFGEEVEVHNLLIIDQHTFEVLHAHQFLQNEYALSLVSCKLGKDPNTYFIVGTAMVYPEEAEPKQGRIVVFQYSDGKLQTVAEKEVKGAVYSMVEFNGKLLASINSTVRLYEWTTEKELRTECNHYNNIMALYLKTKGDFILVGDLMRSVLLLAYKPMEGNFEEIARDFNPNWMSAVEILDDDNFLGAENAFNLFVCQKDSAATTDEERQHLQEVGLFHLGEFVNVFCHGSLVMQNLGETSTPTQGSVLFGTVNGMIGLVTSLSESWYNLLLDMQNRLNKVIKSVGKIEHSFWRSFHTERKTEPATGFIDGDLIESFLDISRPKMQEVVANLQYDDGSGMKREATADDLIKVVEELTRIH
# assay.notes: HiBiT degradation assay, NCCIT/SALL4-HiBiT KI cells
# Type: cell-based
# condition.context: depth of degradation (100% = no reduction, 0% = complete degradation), 2 hr, N ≥ 3
measure.name: SALL4 Ymin (%)
Report only the number, with the unit % understood.

The cases that follow already have their SALL4 Ymin on record.
O=C1CCC(N2C(=O)c3ccc([C@@H]4C[C@]4(C(=O)OCC(Cl)(Cl)Cl)c4ccc(Br)cc4)cc3C2=O)C(=O)N1 (some centres unmarked) [Compound 16a]: 92
O=C1CCC(N2Cc3cccc([C@@H]4C[C@]4(C(=O)OCC(Cl)(Cl)Cl)c4ccc(Br)cc4)c3C2=O)C(=O)N1 (some centres unmarked) [Compound 18a]: 93
O=C1CCC(N2C(=O)c3cccc([C@H]4C[C@@]4(C(=O)OCC(Cl)(Cl)Cl)c4ccc(Br)cc4)c3C2=O)C(=O)N1 (some centres unmarked) [Compound 14b]: 87
O=C1CCC(N2Cc3cccc(C4=C[C@@]4(C(=O)OCC(Cl)(Cl)Cl)c4ccc(Br)cc4)c3C2=O)C(=O)N1 (some centres unmarked) [Compound 24b]: 97

input: Form field: reported SALL4 Ymin of O=C1CCC(N2Cc3ccc(C4=C[C@]4(C(=O)OCC(Cl)(Cl)Cl)c4ccc(Br)cc4)cc3C2=O)C(=O)N1 (some centres unmarked) [Compound 23a]
output: 95
